system: MS2 coat protein; assay: apparent KD of MS2 coat protein; designed switch direction (-1 OFF switch, 1 ON switch): 1; higher = weaker reporter binding; conditions: Eterna round: R95; input ligand: none
Classify by measured apparent KD of MS2 coat protein: true if it is equal to or exceeds 600 nM, false if it is smaller.

1) GGUCCAGCCUGAGCUGGACAAAAGCAUGUACAUGAGGAUCACCCAUGUCAUGUACAAGCUUUUUGCUCGUCUAAAUA [Mat - hsa-mir-208a - 90] (puzzle: Sensor for hsa-mir-208a) : false
2) GACAAUCUAUCUGAGGAUAUCAUGAAAAAAACAUGAGGAUCACCCAUGUGCAGGAAAACUGCAUAUGAGAAGGCAGAUAGAUUGA [salish99_SS2_r3_009] (puzzle: Same State 2) : true
3) AACGUGGGAGCACAGGAUAUGCAUUGCUCCACAUGAGGAUCACCCAUGUAGGCAAAUAGGGAGCAGCAGAAGGGUGGUCCGACAC [Orraonrexe] (puzzle: Same State 2) : false

Does apparent KD of MS2 coat protein meet or surpass 600 nM for AUAUAACAUGAGGAUCACCCAUGUCUCUAAAGUCGAGGAUAUGGGCAGGUUAUAUCCGAACCAGAAGGCGGGUUAU [SS1 Teenbexe 8] (puzzle: Same State 1) ?
false

----------
system: K4 kissing-loop RNA reporter; test: apparent KD of K4 kissing-loop reporter; higher = weaker reporter binding; conditions: Eterna round: R107; input ligand: FMN 200 uM
Metric Name: apparent KD of K4 kissing-loop reporter (nM)
Please reply with the bare figure in nM and do not write the unit itself.

Here are 3 sequences together with their reported answers.
1) UCCUGCAAUCUGCCACGAAAGUGGAUUGAUACCAGAGUCGAAAGACUCCCUUGGCAGCGAGUGAUGUUCGUUGCAGGUAAAUAAA [MatMod 7 - Jieux - Exclusion - Theophylline A] : 181
2) AGGCACGAGCAAGGAUAUCGAGUAGAGUGAUGUUCUGCCUGGGUUGGCUCGGAAGAGCCUUCUCAGCGAGAAGGUGCUCGUGCCU [#2 Same State - FMN A Attempt #19 (HarryS)] : 235
3) GGACGACAGGCGGCCGCCACUCACAGCAGCCAGCGAGUGAUGUUCGUAGCGGAGUGAUGUUCCGAGAGGACCGGGUCUGCAGUCC [Same State Tryptophan B GF 17] : 246

// apparent KD of K4 kissing-loop reporter lookup, key: CCUAUCUCAUACGAUACCAGUCAAAAUAUAAUUAACCAGUGAUGUUGGAUUUACCAAGGAGACCCUUGGCAGCGUAUGGGAUAGG [Ex Theophylline B K4 18]
387

// apparent KD of K4 kissing-loop reporter lookup, key: CACCAUGAAUUCUCUAGGAGUGAUGUUUUUCGAGGACCGGUACGGCCGCCACUCGGACGAGGACCGUGGGAGCGGCGAAGCGACU [wwegmullin]
234

----------
tested on: K4 kissing-loop RNA reporter; assay: apparent KD of K4 kissing-loop reporter; higher = weaker reporter binding; conditions: Eterna round: R107; input ligand: arginine 13.2 mM;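 also: bound reporter read as fluorescence of individual clusters on recovered sequencing chips by microscopy, with normalized cluster intensities fitted with a binding model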
Metric Name: apparent KD of K4 kissing-loop reporter (nM)
Please reply with the bare figure in nM and do not write the unit itself.

1) GUUACGCAUGGAAGGAGCGCUCUCCGGUUGAUCGACACAGUGAUGUUGUGGUUCUACCGUAAGCAGGUAGGUCGCCAUGUGUAAC [Ex Arginine B K4 14] : 449

// apparent KD of K4 kissing-loop reporter lookup, key: AAACAUUGGUCGGAUACCAGUUAGACCGAUAAGGUCAAAACUGGAGUGAUGUUCCCAAAUAACCCUUGGCAGCCGACCGAUGAAA [MAT - Same State Theophlline B - Mod of Eli - D11]
121

// apparent KD of K4 kissing-loop reporter lookup, key: UGACUGGACUGAAGGAGCGCUAAAACUCCUAGUGAUGUUGGGAAAUAGAGACAAAGUCUCAAGCAGGUAGGUCGCAGUCUAGUCU [ArgBS 23 #SwitchBubble #StaticStem]
200

// apparent KD of K4 kissing-loop reporter lookup, key: CCUAUCUCAUACGAUACCAGUCAAAAUAUAAUUAACCAGUGAUGUUGGAUUUACCAAGGAGACCCUUGGCAGCGUAUGGGAUAGG [Ex Theophylline B K4 18]
412
